Task for the reader: assign each of the following compounds its reported pEC50.
# experimental target: FPRL-1 (Homo sapiens, UniProt P25090)
# Construct: expressed in transfected cells; host or cells: CHO-Gα16 cells stably expressing FPRL1
# measurement protocol: FPRL-1 Ga16-CHO compound-induced calcium activity (FLIPR Tetra)
# Type: cell-based
# study conditions: CHO-Gα16 cells stably expressing FPRL1; calcium activity on FLIPR Tetra; tested at 0.61 to 10,000 nM; read-out: FPRL-1 Ga16-CHO EC50
Kindly note that pEC50 refers to -log10 of the concentration in mol/L and answer with the value alone.

Hello, please tell me recorded pEC50 for this one: CC1(CCc2ccccc2O)NC(=O)N(NC(=O)Nc2ccc(Br)cc2)C1=O (stereo not shown) 9.01

Hello, please tell me recorded pEC50 for this one: CC1(Cc2c[nH]c3ccccc23)NC(=O)N(NC(=O)Nc2ccc(Br)cc2)C1=O (stereo not shown) 6.94

Hello, please tell me recorded pEC50 for this one: CC1(CCc2cccc(O)c2)NC(=O)N(NC(=O)Nc2ccc(Br)cc2F)C1=O (stereo not shown) 8.54

Hello, please tell me recorded pEC50 for this one: CC1(CCc2ccccc2)NC(=O)N(NC(=O)Nc2ccc(Br)cc2F)C1=O (stereo not shown) 7.21

Hello, please tell me recorded pEC50 for this one: CCC1(CCc2ccccc2C(=O)OC)NC(=O)N(NC(=O)Nc2ccc(Br)cc2F)C1=O (stereo not shown) 7.83

Hello, please tell me recorded pEC50 for this one: CC(C)C1(CC(=O)NCCC(=O)O)NC(=O)N(NC(=O)Nc2ccc(Br)cc2)C1=O (stereo not shown) 8.29

Hello, please tell me recorded pEC50 for this one: CC1(CCc2ccc(F)cc2)NC(=O)N(NC(=O)Nc2ccc(Br)cc2F)C1=O (stereo not shown) 6.93

Hello, please tell me recorded pEC50 for this one: CC1(CCc2ccccc2F)NC(=O)N(NC(=O)Nc2ccc(Br)cc2)C1=O (stereo not shown) 7.85

Hello, please tell me recorded pEC50 for this one: CC1(CCc2ccccc2F)NC(=O)N(NC(=O)Nc2ccc(Br)cc2F)C1=O (stereo not shown) 7.25

Hello, please tell me recorded pEC50 for this one: "CC1(C)NC(=O)N(NC(=O)Nc2ccc(Br)cc2)C1=O" 7.13

Hello, please tell me recorded pEC50 for this one: CC(C)C1(CC(=O)NCC(=O)O)NC(=O)N(NC(=O)Nc2ccc(Br)cc2)C1=O (stereo not shown) 6.88

Hello, please tell me recorded pEC50 for this one: "O=C(Nc1ccc(Br)cc1)NN1C(=O)NC(C2CC2)(C2CC2)C1=O" 7.84

Hello, please tell me recorded pEC50 for this one: CC(C)C1(CC(=O)O)NC(=O)N(NC(=O)Nc2ccc(Br)cc2F)C1=O (stereo not shown) 6.15

----------
# experimental target: FPRL-1 (Homo sapiens)
# Construct: expressed in transfected cells; host or cells: CHO-Gα16 cells stably expressing FPRL1
# measurement protocol: FPRL-1 Ga16-CHO compound-induced calcium activity (FLIPR Tetra)
# Type: cell-based
# study conditions: CHO-Gα16 cells stably expressing FPRL1; calcium activity on FLIPR Tetra; tested at 0.61 to 10,000 nM; read-out: FPRL-1 Ga16-CHO EC50
assay readout: pEC50
Kindly note that pEC50 refers to -log10 of the concentration in mol/L and answer with the value alone.

Hello, please tell me recorded pEC50 for this one: CCc1ccc2[nH]c(C3(C)NC(=O)N(c4ccc(Br)cc4)C3=O)cc2c1 (stereo not shown) 5.59

Hello, please tell me recorded pEC50 for this one: CC(C)CC1(CCc2ccccc2)NC(=O)N(NC(=O)Nc2ccc(Br)cc2F)C1=O (stereo not shown) 6.98

Hello, please tell me recorded pEC50 for this one: CC1(CCc2ccc(O)c(F)c2)NC(=O)N(NC(=O)Nc2ccc(Br)cc2)C1=O (stereo not shown) 8.10

----------
Task for the reader: assign each of the following compounds its reported pEC50.
# experimental target: FPRL-1 (Homo sapiens)
# Construct: expressed in transfected cells; host or cells: CHO-Gα16 cells stably expressing FPRL1
# Sequence (P25090 1-351): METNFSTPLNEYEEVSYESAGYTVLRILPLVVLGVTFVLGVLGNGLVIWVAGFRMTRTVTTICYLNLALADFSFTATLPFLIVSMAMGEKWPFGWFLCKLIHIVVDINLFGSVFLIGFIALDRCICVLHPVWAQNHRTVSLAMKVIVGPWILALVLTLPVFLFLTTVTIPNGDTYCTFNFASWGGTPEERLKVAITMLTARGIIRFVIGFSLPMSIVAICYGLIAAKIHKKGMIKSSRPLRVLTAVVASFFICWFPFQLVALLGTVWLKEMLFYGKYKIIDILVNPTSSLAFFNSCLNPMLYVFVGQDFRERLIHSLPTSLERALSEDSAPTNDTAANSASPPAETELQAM
# measurement protocol: FPRL-1 Ga16-CHO compound-induced calcium activity (FLIPR Tetra)
# Assay type: cell-based
# study conditions: CHO-Gα16 cells stably expressing FPRL1; calcium activity on FLIPR Tetra; tested at 0.61 to 10,000 nM; read-out: FPRL-1 Ga16-CHO EC50
Kindly note that pEC50 refers to -log10 of the concentration in mol/L and answer with the value alone.

Enter recorded pEC50 with FPRL-1 (Homo sapiens) for "CCc1ccc(NC(=O)NN2C(=O)NC(CC)(CC)C2=O)cc1" here. 6.90

Enter recorded pEC50 with FPRL-1 (Homo sapiens) for CC1(CCc2ccco2)NC(=O)N(NC(=O)Nc2ccc(Br)cc2)C1=O (stereo not shown) here. 8.16

Enter recorded pEC50 with FPRL-1 (Homo sapiens) for CC1(CCc2ccc(O)cc2)NC(=O)N(NC(=O)Nc2ccc(Br)cc2F)C1=O (stereo not shown) here. 8.06

Enter recorded pEC50 with FPRL-1 (Homo sapiens) for CC1(CCc2ccco2)NC(=O)N(NC(=O)Nc2ccc(Br)cc2F)C1=O (stereo not shown) here. 7.40

Enter recorded pEC50 with FPRL-1 (Homo sapiens) for "O=C(Nc1ccc(Br)cc1F)NN1C(=O)NC2(CCCCC2)C1=O" here. 6.63

Enter recorded pEC50 with FPRL-1 (Homo sapiens) for "CCC1(CC)NC(=O)N(NC(=O)Nc2ccc(Cl)cc2)C1=O" here. 7.57

Enter recorded pEC50 with FPRL-1 (Homo sapiens) for "O=C(Nc1ccc(Br)cc1)NN1C(=O)NC2(CCCCC2)C1=O" here. 7.87

Enter recorded pEC50 with FPRL-1 (Homo sapiens) for "CCC1(CC)NC(=O)N(NC(=O)Nc2ccc(Cl)c(F)c2)C1=O" here. 6.83

Enter recorded pEC50 with FPRL-1 (Homo sapiens) for CC1(COc2ccccc2)NC(=O)N(NC(=O)Nc2ccc(Br)cc2F)C1=O (stereo not shown) here. 7.28

Enter recorded pEC50 with FPRL-1 (Homo sapiens) for "O=C(Nc1ccc(Br)cc1F)NN1C(=O)NC2(CCCC2)C1=O" here. 7.62

Enter recorded pEC50 with FPRL-1 (Homo sapiens) for "CCC1(CC)NC(=O)N(NC(=O)Nc2ccc(Cl)cc2F)C1=O" here. 7.41

Enter recorded pEC50 with FPRL-1 (Homo sapiens) for "CCC1(CC)NC(=O)N(NC(=O)Nc2ccc(C#N)cc2)C1=O" here. 5.91

Enter recorded pEC50 with FPRL-1 (Homo sapiens) for CCc1ccc2[nH]c(C3(C)NC(=O)N(NC(=O)Nc4ccc(Br)cc4F)C3=O)cc2c1 (stereo not shown) here. 6.77

Enter recorded pEC50 with FPRL-1 (Homo sapiens) for "CCC1(CC)NC(=O)N(NC(=O)Nc2ccc(Br)cc2)C1=O" here. 8.04

Enter recorded pEC50 with FPRL-1 (Homo sapiens) for CC(C)C1(CC(=O)NCCO)NC(=O)N(NC(=O)Nc2ccc(Br)cc2)C1=O (stereo not shown) here. 7.79

Enter recorded pEC50 with FPRL-1 (Homo sapiens) for "CCC1(CC)NC(=O)N(NC(=O)Nc2ccc(Br)cc2F)C1=O" here. 7.81

Enter recorded pEC50 with FPRL-1 (Homo sapiens) for "CCC1(CC)NC(=O)N(NC(=O)Nc2ccc(SC)cc2)C1=O" here. 7.43

Enter recorded pEC50 with FPRL-1 (Homo sapiens) for COC(=O)c1ccccc1CCC1(C)NC(=O)N(NC(=O)Nc2ccc(Br)cc2)C1=O (stereo not shown) here. 7.54

This collection of values is drawn from patent US20130123215A1.
